Quick list: TGI per entry.
System: SK-OV-3 ovarian
Assay: NCI tumour cell line growth inhibition, 48 h

compound | TGI
O=C(O)/C(=C\c1ccccc1Cl)S(=O)(=O)c1ccccc1 | > 100 µM
C/C1=C\C/C=C(\C)[C@H]2CC(CC/C(C)=C/CC1)[C@](C)(C=O)O2 | > 100 µM
Clc1ccc(C=NC23CC4CC(CC(C4)C2)C3)cc1Cl | > 10 µM
COC(=O)C1(C2CC/C(C)=C/CC/C(C)=C/CC[C@@]3(C)O[C@@H]3C2)CC1 (stereo partly specified) | > 100 µM
Cc1cccc(C)c1NC(=O)CCC(=O)NC(N)=S | > 100 µM
NC(=S)N/N=c1\cc(C(=O)Nc2ccc([N+](=O)[O-])cc2[N+](=O)[O-])oc2ccccc12 | > 100 µM
C[C@@H]1OC(=O)C[C@H]2CC(=O)N(CCC3CN(S(=O)(=O)C(F)(F)F)c4ccccc43)C[C@@H]21 (stereo partly specified) | > 100 µM
O=c1c2ccccc2[nH]c(=S)n1-c1ccc(N=Nc2cccc3cc(O)ccc23)cc1 | > 100 µM
Cn1c(=O)cc(NCCc2ccccc2)[nH]c1=O | > 100 µM
COc1cc(NCc2ccccc2O)c2ncccc2c1 | 50 µM
COc1ccc(/C=C(/C)[N+](=O)[O-])cc1 | 17.9 µM
COC(CN(C=O)[C@@H](c1ccc(Cl)cc1)c1cc2ccccc2o1)OC | 26.6 µM
COc1ccc(C(=O)C(C(=O)C(=O)Nc2nccs2)c2ccc(OC)cc2)cc1 (stereo unspecified) | > 100 µM
CCCCNC(=O)CCN(C(=O)O)S(=O)(=O)c1ccc(NC(=O)c2ccccc2)cc1 | > 100 µM
O=C(O)c1cc(Cc2ccc(O)c(C(=O)O)c2)ccc1O (tested in a mixture with another compound) | 24.6 µM
N[C@@H]1CCCC[C@@H]1N.O=C([O-])CN(CP(=O)([O-])[O-])CP(=O)([O-])[O-].[Pt+2] | > 100 µM
CCOC(=O)/C(C[C@H]1OC(C)(C)O[C@@H]1[C@H]1COC(C)(C)O1)=N/O | > 100 µM
Cc1ccc(NC(=O)c2[nH]c(SCCN(C)C)nc2-c2ccc(F)cc2)cc1C#Cc1cnc2cccnn12 | 3.44 µM
COC(=S)OC1CC(n2cnc3c(N)ncnc32)OC1CO[Si](C)(C)C(C)(C)C (stereo unspecified) | 60.1 µM
O=S(=O)(NC1OCCCC1I)c1ccccc1 (stereo unspecified) | > 100 µM
CC(=O)Oc1ccc(CO)cc1OC(C)=O | > 100 µM
